Source: patent US20250145606A1

# pIC50 values compiled below
# TARGET_SYSTEM: CSF1R (Homo sapiens (Human), UniProt P07333)
# Sequence (P07333 20-972): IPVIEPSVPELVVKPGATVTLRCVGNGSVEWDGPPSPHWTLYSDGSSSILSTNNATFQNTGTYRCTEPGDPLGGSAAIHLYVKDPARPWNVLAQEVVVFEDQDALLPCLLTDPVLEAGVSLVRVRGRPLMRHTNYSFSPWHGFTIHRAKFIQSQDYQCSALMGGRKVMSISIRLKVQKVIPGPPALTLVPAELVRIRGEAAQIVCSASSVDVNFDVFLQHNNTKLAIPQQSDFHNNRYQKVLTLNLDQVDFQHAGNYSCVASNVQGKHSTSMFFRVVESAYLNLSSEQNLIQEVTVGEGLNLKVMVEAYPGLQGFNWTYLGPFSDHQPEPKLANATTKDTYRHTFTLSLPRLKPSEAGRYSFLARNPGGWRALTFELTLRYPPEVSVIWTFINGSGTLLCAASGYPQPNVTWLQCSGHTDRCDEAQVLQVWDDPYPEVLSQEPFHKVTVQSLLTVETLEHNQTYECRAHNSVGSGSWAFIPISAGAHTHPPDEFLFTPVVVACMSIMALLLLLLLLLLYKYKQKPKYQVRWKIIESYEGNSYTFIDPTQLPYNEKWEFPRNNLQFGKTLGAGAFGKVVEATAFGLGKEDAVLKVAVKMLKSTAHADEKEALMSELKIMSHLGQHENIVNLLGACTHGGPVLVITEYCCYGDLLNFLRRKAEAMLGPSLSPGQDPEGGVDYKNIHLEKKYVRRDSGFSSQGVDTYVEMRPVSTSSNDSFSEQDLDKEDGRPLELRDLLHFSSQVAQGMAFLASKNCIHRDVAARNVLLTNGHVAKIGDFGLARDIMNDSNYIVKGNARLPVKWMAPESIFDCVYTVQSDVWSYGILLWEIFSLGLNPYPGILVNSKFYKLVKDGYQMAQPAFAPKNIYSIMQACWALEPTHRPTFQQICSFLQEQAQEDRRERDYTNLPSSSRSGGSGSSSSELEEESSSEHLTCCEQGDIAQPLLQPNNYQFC
# METHOD_DESCRIPTION: Inhibition of CSF1R kinase activity (HTRF KinEASE-TK)
# TEST_CONDITIONS: biochemical, HTRF KinEASE-TK
pIC50: −log10 of the molar value.
PROPERTY_MEASURED: pIC50

>>> assay_result("Cc1ncc(C(=O)Nc2cc(C(=O)NCc3ccc(OC(F)(F)F)c(F)c3)c(F)cc2C)s1 [Example 269]")
"< 6.00"
>>> assay_result("Cc1cc(F)c(C(=O)Nc2ccc(COC(F)F)cn2)cc1NC(=O)c1cnc(N)s1 [Example 254]")
"6.00 to 7.00"
>>> assay_result("Cc1cc(F)c(C(=O)NC2CN(c3ncccn3)C2)cc1NC(=O)c1cnc(N)s1 [Example 125]")
"< 6.00"
>>> assay_result("Nc1ncc(C(=O)Nc2cc(C(=O)Nc3ncc(C4CC4)cn3)c(F)cc2Cl)s1 [Example 203]")
"6.00 to 7.00"
>>> assay_result("Cc1ncc(C(=O)Nc2cc(C(=O)Nc3cnc(C(F)(F)F)cn3)c(F)cc2C)s1 [Example 29]")
"< 6.00"
>>> assay_result("Cc1ncc(C(=O)Nc2cc(C(=O)Nc3cncc(C(F)(F)F)c3)c(F)cc2C)s1 [Example 77]")
"< 6.00"
>>> assay_result("Cc1cc(F)c(C(=O)Nc2cnn(C)c2)cc1NC(=O)c1cnc(N)s1 [Example 167]")
"< 6.00"
>>> assay_result("Cc1ncc(C(=O)Nc2cc(C(=O)Nc3ccc(C4CC4)nc3)c(F)cc2C)s1 [Example 24]")
"< 6.00"
>>> assay_result("Cc1cc(F)c(C(=O)Nc2ccc(OC3(C)CC3)cn2)cc1NC(=O)c1cnc(N)s1 [Example 147]")
"6.00 to 7.00"
>>> assay_result("Cc1ncc(C(=O)Nc2cc(C(=O)Nc3cnc(N4CC[C@@H](O)C4)cn3)c(F)cc2C)s1 [Example 72]")
"< 6.00"
>>> assay_result("Cc1cc(F)c(C(=O)Nc2ccc(C3(C#N)CC3)nn2)cc1NC(=O)c1cnc(N)s1 [Example 119]")
"6.00 to 7.00"
>>> assay_result("Cc1cc(F)c(C(=O)Nc2ccn(C3CC3)n2)cc1NC(=O)c1cnc(N)s1 [Example 159]")
"< 6.00"
>>> assay_result("Cc1cc(F)c(C(=O)Nc2ccc(CN3CCN(C)CC3)cn2)cc1NC(=O)c1cnc(N)s1 [Example 247]")
"6.00 to 7.00"
>>> assay_result("Cc1ncc(C(=O)Nc2cc(C(=O)NCc3cccc(F)c3F)c(F)cc2C)s1 [Example 265]")
"< 6.00"
>>> assay_result("Cc1ncc(C(=O)Nc2cc(C(=O)Nc3ccn(C(F)F)n3)c(F)cc2C)s1 [Example 69]")
"< 6.00"
>>> assay_result("Cc1cc(F)c(NC(=O)c2cnc(N)s2)cc1C(=O)Nc1ccc(OC2CC2)cn1 [Example 223]")
"< 6.00"
>>> assay_result("COc1ccc(NC(=O)c2cc(NC(=O)c3cnc(N)s3)c(C)cc2F)nc1 [Example 131]")
"< 6.00"
>>> assay_result("Cc1ncc(C(=O)Nc2cc(C(=O)NCC3(F)CCC3)c(F)cc2C)s1 [Example 68]")
"< 6.00"
>>> assay_result("Cc1ncc(C(=O)Nc2cc(C(=O)Nc3cnc(OC4CC4)cn3)c(F)cc2C)s1 [Example 13]")
"< 6.00"
>>> assay_result("Cc1ncc(C(=O)Nc2cc(C(=O)Nc3cnc(N4CC[C@@H](F)C4)cn3)c(F)cc2C)s1 [Example 94]")
"< 6.00"
>>> assay_result("Cc1cnc(NC(=O)c2cc(NC(=O)c3cnc(N)s3)c(C)cc2F)s1 [Example 160]")
"6.00 to 7.00"
>>> assay_result("Cc1ncc(C(=O)Nc2cc(C(=O)Nc3ccc(C4CC4)nn3)c(F)cc2C)s1 [Example 35]")
"< 6.00"
>>> assay_result("Cc1cc(F)c(C(=O)Nc2ccn(CCO)n2)cc1NC(=O)c1cnc(N)s1 [Example 144]")
"< 6.00"
>>> assay_result("CCc1cnc(NC(=O)c2cc(NC(=O)c3cnc(C)s3)c(C)cc2F)cn1 [Example 27]")
"< 6.00"
>>> assay_result("Cc1cc(F)c(C(=O)Nc2ccc3c(c2)NC(=O)C3(C)C)cc1NC(=O)c1cnc(N)s1 [Example 183]")
"6.00 to 7.00"
>>> assay_result("CCn1ccc(NC(=O)c2cc(NC(=O)c3cnc(N)s3)c(C)cc2F)n1 [Example 179]")
"< 6.00"
>>> assay_result("Cc1ncc(C(=O)Nc2cc(C(=O)Nc3cnc(C4CC4)cn3)c(F)cc2C)s1 [Example 43]")
"< 6.00"
>>> assay_result("COC[C@@H]1CCCN1c1cnc(NC(=O)c2cc(NC(=O)c3cnc(C)s3)c(C)cc2F)cn1 [Example 97]")
"< 6.00"
>>> assay_result("Cc1cc(F)c(C(=O)Nc2ccc(COC(C)C)cn2)cc1NC(=O)c1cnc(N)s1 [Example 195]")
"< 6.00"
>>> assay_result("Cc1cc(F)c(C(=O)N[C@H]2CCOC2)cc1NC(=O)c1cnc(NC(=O)N2CCC2)s1 [Example 102]")
"6.00 to 7.00"
>>> assay_result("Cc1ncc(C(=O)Nc2cc(C(=O)Nc3cnc(N4CC(O)C4)cn3)c(F)cc2C)s1 [Example 71]")
"< 6.00"
>>> assay_result("COCc1ccc(NC(=O)c2cc(NC(=O)c3cnc(N)s3)c(Cl)cc2F)nc1 [Example 202]")
"< 6.00"
>>> assay_result("CCOc1cnc(NC(=O)c2cc(NC(=O)c3cnc(C)s3)c(C)cc2F)cn1 [Example 17]")
"< 6.00"
